- assay_details: qHTS assay to test for compound auto fluorescence at 535 nm (green) in HepG2 cell free culture (AID 720686)
- details: Cell-free medium, green autofluorescence 485/535 nm; series mostly up to 91.3 µM
Activity calls are given as the source filed them. The call rests on the fitted dose curve; in most records, active means well fitted curve in the direction sought with a large enough effect in the repeat runs; inconclusive means weak or mixed curves; inactive means flat fitted curve, though single readings scatter.
property_measured: outcome

> print(dat)
                          molecule  property.measured  measured
1                        O=C1CCCN1            outcome  inactive
2  CC(Br)C(=O)O (stereo not drawn)            outcome  inactive
3                    Nc1ccc(Br)cc1            outcome  inactive
